biological target: Platelet-activating factor acetylhydrolase IB subunit alpha1 (Homo sapiens); assay: PAFAH1B3 enzyme inhibitors, primary screen, biochemical, fluorescence polarization, human (AID 492972); details: recombinant PAFAH1B3, FP-rhodamine probe, at 3.39 µM
Out of some 340,000 compounds screened, about 930 (0.27%) were called active.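 How the source made its calls: active means inhibition above the screen-wide average of all tested compounds plus 3 SD (cut at about 25% in these data); inactive means the rest.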 The list comes from a sample in which actives are over-represented; it also holds close analogues and randomly drawn compounds.
Respond with a class label; see active, inactive

| molecule | category |
| --- | --- |
| O=C(N/N=C/c1sc(N2CCCCC2)nc1-c1cccs1)c1cccnc1 | active |

Name the outcome recorded for CC1CCCC(NC(=O)COC(=O)[C@@H]2CC(O)CN2S(=O)(=O)c2ccc3c(c2)OCCO3)C1C (stereo partly specified) in the assay. inactive

Quick one: "O/N=C1\CC2(Cc3nonc31)OCCO2" inactive

Would you kindly repeat that for CC(NC(=O)c1ccccc1)C(=O)Nc1ccccc1 (stereo unspecified) ? inactive

Let us now turn to "O=C(/C=C(O)/C=C/c1ccc(O)cc1)/C=C/c1ccc(O)cc1" active

Another: "O=C(O)/C=C/c1ccc(OCCCF)cc1" inactive

* * *

biological target: Platelet-activating factor acetylhydrolase IB subunit alpha1 (Homo sapiens); test: PAFAH1B3 enzyme inhibitors, primary screen, biochemical, fluorescence polarization, human (AID 492972); conditions: recombinant PAFAH1B3, FP-rhodamine probe, at 3.39 µM
Hit rate of the full screen: of about 340,000 compounds, about 930 (0.27%) were called active.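 How the source made its calls: active means inhibition above the screen-wide average of all tested compounds plus 3 SD (cut at about 25% in these data); inactive means the rest.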 The sample holds actives, similar compounds and a random draw of the others, so the mix is not that of the screen.
Field 'call' accepts active, inactive

| molecule | category |
| --- | --- |
| COc1cc(NC(=O)COC(=O)c2ccc([N+](=O)[O-])s2)cc(OC)c1OC | inactive |
| COc1cccc(/C=C/C(=O)OCC(=O)N2CCN(c3ccccc3)CC2)c1 | inactive |
| CC(C)n1cnc2c(NCc3ccccc3)cc(OCC3CCN(C)CC3)cc21 | active |
| COc1ccc(N2CCN(C3CCCCC3NS(=O)(=O)c3ccccc3)CC2)cc1 (centres undefined) | inactive |
| CCNS(=O)(=O)c1ccc(CCC(=O)N2CCN(c3cc(Cl)ccc3C)CC2)cc1 | inactive |
| N#C/C=C1\Sc2ccccc2C(=O)N1CC(=O)N1CCN(S(=O)(=O)c2ccccc2)CC1 | inactive |
| CCNC(=O)NNC(=O)C1CC(c2cccs2)=NO1 (centres undefined) | inactive |
| O=P(c1ccc2c(c1)OCCO2)(N1CCOCC1)N1CCOCC1 | inactive |

Returns: the outcome recorded for "OCCNc1nc2ccccc2n1-c1ncnc2sc3c(c12)CCC3" in this assay. inactive

// repeat for "O=C(CN1C(=O)NC2(CCCCCC2)C1=O)NC1CC1" and report inactive

Similarly, CCC(CO)Oc1cc(NC(=O)c2cccc3ccccc23)c2ncn(C(C)C)c2c1 (centres undefined) ? inactive

Further, for "O=C(Nc1nc(-c2ccco2)c(-c2ccco2)s1)c1ccco1" ? inactive

Record: "O=C(CCCC(=O)N(CC(=O)NC1CCCC1)Cc1ccccc1Cl)Nc1ccccn1" inactive

Next molecule up: "Cc1ccc(C)c(NC(=O)COC(=O)CSc2ccccc2)c1" inactive

Repeat for the following molecule: CCC(C(=O)Nc1ccc(C(C)C)cc1)c1ccccc1 (centres undefined) inactive
